Sourced from the supplement of paper PMC10567573

B1: SMTNL2 (parent)
chain: ETAAGKGKGEARARLKRSQSFGVA

variants of: B1; experiment: protein stability index of a GFP-peptide fusion (GPS, HEK-293T) (PSI 1-6); higher = more stable; details: c terminus: a fixed tail appended;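 note: lentivirally expressed fusions sorted by FACS into six bins by GFP to DsRed ratio, PSI derived from sequencing read proportions per bin multiplied by bin number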
Classification field: enter label 1 for protein stability index values not below 4, label 0 for values below it.

- mutation-notation: "E1V"
  assigned-category: "label 0"
- mutation-notation: "G5H"
  assigned-category: "label 1"
- mutation-notation: "L15R"
  assigned-category: "label 1"
- mutation-notation: "G5V"
  assigned-category: "label 1"
- mutation-notation: "A24H"
  assigned-category: "label 1"
- mutation-notation: "A13C"
  assigned-category: "label 1"
- mutation-notation: "G22R"
  assigned-category: "label 1"
- mutation-notation: "S18A"
  assigned-category: "label 1"
- mutation-notation: "R12P"
  assigned-category: "label 1"
- mutation-notation: "A3P"
  assigned-category: "label 1"
- mutation-notation: "A13V"
  assigned-category: "label 0"
- mutation-notation: "F21P"
  assigned-category: "label 1"
- mutation-notation: "G5T"
  assigned-category: "label 1"
- mutation-notation: "L15H"
  assigned-category: "label 1"
- mutation-notation: "K6H"
  assigned-category: "label 1"
- mutation-notation: "A11L"
  assigned-category: "label 1"
- mutation-notation: "L15T"
  assigned-category: "label 0"
- mutation-notation: "R12N"
  assigned-category: "label 0"
- mutation-notation: "Q19S"
  assigned-category: "label 0"
- mutation-notation: "T2W"
  assigned-category: "label 0"
- mutation-notation: "E1G"
  assigned-category: "label 1"
- mutation-notation: "R17S"
  assigned-category: "label 1"
- mutation-notation: "G22M"
  assigned-category: "label 0"
- mutation-notation: "G7T"
  assigned-category: "label 1"
- mutation-notation: "K8A"
  assigned-category: "label 1"
- mutation-notation: "R17V"
  assigned-category: "label 0"
- mutation-notation: "G9V"
  assigned-category: "label 1"
- mutation-notation: "A24D"
  assigned-category: "label 1"
- mutation-notation: "V23D"
  assigned-category: "label 1"
- mutation-notation: "L15A"
  assigned-category: "label 1"
- mutation-notation: "R12Y"
  assigned-category: "label 1"
- mutation-notation: "E10R"
  assigned-category: "label 1"
- mutation-notation: "F21D"
  assigned-category: "label 1"
- mutation-notation: "G7F"
  assigned-category: "label 0"
- mutation-notation: "R17C"
  assigned-category: "label 0"
- mutation-notation: "G9D"
  assigned-category: "label 1"
- mutation-notation: "A4E"
  assigned-category: "label 1"
- mutation-notation: "F21A"
  assigned-category: "label 1"
- mutation-notation: "E10V"
  assigned-category: "label 1"
- mutation-notation: "E10D"
  assigned-category: "label 1"
- mutation-notation: "G5R"
  assigned-category: "label 1"
- mutation-notation: "K6Q"
  assigned-category: "label 0"
- mutation-notation: "Q19P"
  assigned-category: "label 1"
